TESTED_ON: IgG
METHOD_SUMMARY: IgG SPR binding
STATED_CONDITIONS: second table, read-out: IgG KD
pKd: −log10 of the molar value. Positions of bridges follow the written chain, without caps; N, C: chain ends. Non-standard residues stand in square brackets, D forms with d. Residues, ends and D or L forms follow the SMILES beside them. ξ: configuration not given here. ξPro(4-NH2) = NC1CNC(C(=O)O)C1
ASSAY_READOUT: pKd

CC(C)CC1NC(=O)C(Cc2cnc[nH]2)NC(=O)C(Cc2c[nH]c3ccccc23)NC(=O)C(C)NC(=O)C2CSSCC(NC(=O)C(Cc3c[nH]c4ccccc34)NC(=O)C(C(C)C)NC(=O)C(CC(C)C)NC(=O)C(CCC(=O)O)NC(=O)CNC1=O)C(=O)NC(C(C)O)C(=O)N1CCCC1C(=O)N1CC(N)CC1C(=O)NC(CC(=O)O)C(=O)N2 (stereo not drawn) [compound 56] ... > 7.00

Task: Look up pKd for this compound: CC(C)CC1NC(=O)C(Cc2cnc[nH]2)NC(=O)C(Cc2c[nH]c3ccccc23)NC(=O)C(C)NC(=O)C2CSSCC(NC(=O)C(Cc3c[nH]c4ccccc34)NC(=O)C(C(C)C)NC(=O)C(CC(C)C)NC(=O)C(CCC(=O)O)NC(=O)CNC1=O)C(=O)NC(C(C)O)C(=O)N1CCCC1C(=O)N1CC(NC(=O)c3ccc(C(=O)NCC4OCC(Nc5cncc(C(F)(F)F)n5)C(O)C4O)cc3)CC1C(=O)NC(CC(=O)O)C(=O)N2 (stereo not drawn) [compound 43]
Output: > 7.00

Task: Which pKd is listed for CC(C)CC1NC(=O)C(Cc2cnc[nH]2)NC(=O)C(Cc2c[nH]c3ccccc23)NC(=O)C(C)NC(=O)C2CSSCC(NC(=O)C(Cc3c[nH]c4ccccc34)NC(=O)C(C(C)C)NC(=O)C(CC(C)C)NC(=O)C(CCC(=O)O)NC(=O)CNC1=O)C(=O)NC(C(C)O)C(=O)N1CCCC1C(=O)N1CC(N)CC1C(=O)NC(CC(N)=O)C(=O)N2 (stereo not drawn) [compound 55] (cyclo(GELVWCTP[ξPro(4-NH2)]NCAWHL); disulfide 6-11; configuration not given here) ?
Output: > 7.00

====

TESTED_ON: ASGPR (Homo sapiens)
Construct: biotin (biotinylated)
Sequence (P07306 whole entry): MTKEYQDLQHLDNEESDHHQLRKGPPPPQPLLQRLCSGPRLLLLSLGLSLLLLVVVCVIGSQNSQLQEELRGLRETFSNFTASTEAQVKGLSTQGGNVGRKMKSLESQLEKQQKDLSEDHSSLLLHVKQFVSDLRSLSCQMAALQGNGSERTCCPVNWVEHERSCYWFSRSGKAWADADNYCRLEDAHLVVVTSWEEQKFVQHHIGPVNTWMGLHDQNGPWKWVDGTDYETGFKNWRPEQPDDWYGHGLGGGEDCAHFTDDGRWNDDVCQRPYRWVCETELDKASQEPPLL
METHOD_SUMMARY: ASGPR SPR binding
STATED_CONDITIONS: Table 3, read-out: ASGPR SPR Binding KD
ASSAY_READOUT: Kd

CC(C)C[C@@H]1NC(=O)[C@H](Cc2cnc[nH]2)NC(=O)[C@H](Cc2c[nH]c3ccccc23)NC(=O)[C@H](C)NC(=O)[C@@H]2CSSC[C@H](NC(=O)[C@H](Cc3c[nH]c4ccccc34)NC(=O)[C@H](C(C)C)NC(=O)[C@H](CC(C)C)NC(=O)[C@H](CCC(=O)O)NC(=O)CNC1=O)C(=O)N[C@@H]([C@@H](C)O)C(=O)N1CCC[C@@H]1C(=O)N1C[C@@H](NC(=O)COCCOCC(=O)NC[C@H]3OC[C@H](Nc4nc(C(F)(F)F)ccc4F)[C@@H](O)[C@H]3O)C[C@H]1C(=O)N[C@@H](CC(=O)O)C(=O)N2 [compound 33] ... 100 to 500 nM

// below: Kd requested for another compound
Task: Query: Kd; subject: CC(C)C[C@@H]1NC(=O)[C@H](Cc2cnc[nH]2)NC(=O)[C@H](Cc2c[nH]c3ccccc23)NC(=O)[C@H](C)NC(=O)[C@@H]2CSSC[C@H](NC(=O)[C@H](Cc3c[nH]c4ccccc34)NC(=O)[C@H](C(C)C)NC(=O)[C@H](CC(C)C)NC(=O)[C@H](CCC(=O)O)NC(=O)CNC1=O)C(=O)N[C@@H]([C@@H](C)O)C(=O)N1CCC[C@@H]1C(=O)N1C[C@H](NC(=O)COCCOCC(=O)NC[C@H]3OC[C@H](Nc4cccc(C(F)(F)F)n4)[C@@H](O)[C@H]3O)C[C@H]1C(=O)N[C@@H](CC(=O)O)C(=O)N2 [compound 28]
Output: < 100 nM

====

Measured Kd accompanies every entry in the list below.
TESTED_ON: ASGP receptor (biotinylated ASGPR) (Homo sapiens)
Construct: biotin (biotinylated)
Sequence (P07306 whole entry): as above
Format: binding
STATED_CONDITIONS: SPR, Biacore 8K, 25° C.; Table 1B; read-out: ASGPR Kd

In the examples that follow, each entry is paired with its recorded Kd.
O=C1c2ccccc2CN1C[C@H]1OC[C@H](Nc2cncc(C(F)(F)F)n2)[C@@H](O)[C@H]1O ... < 10 µM
OC[C@H]1OC[C@H](Oc2cccc(C(F)(F)F)n2)[C@@H](O)[C@H]1O ... < 10 µM
O=C(OCc1ccccc1)N1C[C@H](Nc2cncc(C(F)(F)F)n2)[C@@H](O)[C@@H](O)C1 ... < 10 µM
O=C(c1ccc(Cc2ccccc2)cc1)N1C[C@H](Nc2cncc(C(F)(F)F)n2)[C@@H](O)[C@@H](O)C1 ... < 10 µM
COc1cc(N[C@H]2CO[C@H](CO)[C@H](O)[C@@H]2O)nc(C(F)(F)F)c1 ... < 10 µM
O[C@@H]1[C@H](O)[C@@H](Nc2cccc(OC(F)(F)F)n2)CO[C@@H]1COc1cccc(OC(F)(F)F)n1 ... < 10 µM
NCc1ccc(N2CCC(CN3CCN(C[C@H]4OC[C@H](Nc5cncc(C(F)(F)F)n5)[C@@H](O)[C@H]4O)CC3)CC2)cc1 ... < 10 µM

// below: Kd requested for another compound
Task: Can you look up the measured Kd of C[C@H]1OC[C@H](Nc2cncc(C(F)(F)F)n2)[C@@H](O)[C@H]1O for me?
Output: < 10 µM

====

TESTED_ON: IgG
METHOD_SUMMARY: IgG SPR binding
STATED_CONDITIONS: Table 3, read-out: IgG SPR Binding KD
ASSAY_READOUT: Kd

Task: What Kd value was documented for this molecule, CC(C)C[C@@H]1NC(=O)[C@H](Cc2cnc[nH]2)NC(=O)[C@H](Cc2c[nH]c3ccccc23)NC(=O)[C@H](C)NC(=O)[C@@H]2CSSC[C@H](NC(=O)[C@H](Cc3c[nH]c4ccccc34)NC(=O)[C@H](C(C)C)NC(=O)[C@H](CC(C)C)NC(=O)[C@H](CCC(=O)O)NC(=O)CNC1=O)C(=O)N[C@@H]([C@@H](C)O)C(=O)N1CCC[C@@H]1C(=O)N1C[C@H](NC(=O)COCCOCC(=O)NC[C@H]3OC[C@H](Nc4cccc(C(F)(F)F)n4)[C@@H](O)[C@H]3O)C[C@H]1C(=O)N[C@@H](CC(=O)O)C(=O)N2 [compound 28] ?
Output: < 100 nM

====

TESTED_ON: IgG
METHOD_SUMMARY: IgG SPR binding
STATED_CONDITIONS: second table, read-out: IgG KD
ASSAY_READOUT: Kd

Completed entries (count: 2):
CC(C)CC1NC(=O)C(Cc2cnc[nH]2)NC(=O)C(Cc2c[nH]c3ccccc23)NC(=O)C(C)NC(=O)C2CSSCC(NC(=O)C(Cc3c[nH]c4ccccc34)NC(=O)C(C(C)C)NC(=O)C(CC(C)C)NC(=O)C(CCC(=O)O)NC(=O)CNC1=O)C(=O)NC(C(C)O)C(=O)N1CCCC1C(=O)N1CC(NC(=O)c3ccc(-c4ccc(C(=O)NCC5OCC(Nc6cncc(C(F)(F)F)n6)C(O)C5O)cc4)cc3)CC1C(=O)NC(CC(=O)O)C(=O)N2 (stereo not drawn) [compound 49] ... < 100 nM
CC(C)CC1NC(=O)C(Cc2cnc[nH]2)NC(=O)C(Cc2c[nH]c3ccccc23)NC(=O)C(C)NC(=O)C2CSSCC(NC(=O)C(Cc3c[nH]c4ccccc34)NC(=O)C(C(C)C)NC(=O)C(CC(C)C)NC(=O)C(CCC(=O)N(C)C)NC(=O)CNC1=O)C(=O)NC(C(C)O)C(=O)N1CCCC1C(=O)N1CC(NC(=O)CNC(COCCC(=O)NCCOCCOCCOCCOCC3OCC(Nc4cncc(C(F)(F)F)n4)C(O)C3O)COCCC(=O)NCCOCCOCCOCCOCC3OCC(Nc4cncc(C(F)(F)F)n4)C(O)C3O)CC1C(=O)NC(CC(=O)O)C(=O)N2 (stereo not drawn) [compound 53] ... < 100 nM

Now examine the next entry.
Task: Recorded Kd of C#CCCCC(=O)NC1CC2C(=O)NC(CC(=O)O)C(=O)NC3CSSCC(NC(=O)C(Cc4c[nH]c5ccccc45)NC(=O)C(C(C)C)NC(=O)C(CC(C)C)NC(=O)C(CCC(=O)O)NC(=O)CNC(=O)C(CC(C)C)NC(=O)C(Cc4cnc[nH]4)NC(=O)C(Cc4c[nH]c5ccccc45)NC(=O)C(C)NC3=O)C(=O)NC(C(C)O)C(=O)N3CCCC3C(=O)N2C1 (stereo not drawn) [compound 75] , please.
Output: < 100 nM
